Please respond with reported melting point for every item in the list.

query: Recorded melting point for CCn1cc(C(=O)O)c(=O)cc1-c1ccc(N(C)C)c(C)c1 , please?
result: 160 to 162 °C

query: Recorded melting point for CC1(C)CCC(C)(C)c2cc3oc(-c4ccc(C(=O)O)cc4)nc3cc21 , please?
result: 290 °C

query: Recorded melting point for CCc1ccc(CCOc2ccc([N+](=O)[O-])cc2)nc1 , please?
result: 53 to 54 °C

query: Recorded melting point for Nc1ncnc2c1ncn2OCC(CO)SCP(=O)(O)O (stereo not drawn) , please?
result: 195 to 197 °C

query: Recorded melting point for CN1CCN(c2cc3c(Cl)cccc3c(=O)[nH]2)CC1 , please?
result: 230 to 231 °C

query: Recorded melting point for Cc1[nH]c(=O)[nH]c1-c1cc(C(C)(C)C)c(O)c(C(C)(C)C)c1 , please?
result: > 270 °C

query: Recorded melting point for CCCCCC(=O)N(CO)C1N=C(c2ccccc2)c2ccccc2N(C)C1=O (single isomer, unassigned; (+)) , please?
result: 154 to 156 °C

query: Recorded melting point for CC(C)(C)CCC(=O)c1ccc2cc(-c3ccc4c(Br)c(OCC(=O)O)ccc4c3)sc2c1 , please?
result: 246 to 247 °C

query: Recorded melting point for CC(C)n1nc(-c2cc(I)c(N)nc2-c2ccccc2)ccc1=O , please?
result: 196 to 197 °C

query: Recorded melting point for c1ccc(CNc2nccc3[nH]cnc23)cc1 , please?
result: 60 to 64 °C

query: Recorded melting point for CC(C(=S)NCN1CCOCC1)c1ccccn1 (stereo not drawn) , please?
result: 69 °C

query: Recorded melting point for CC(C)c1ccc2c(c1)c(SCc1ccccc1)c(CC(C)(C)C(=O)O)n2Cc1ccc(Cl)cc1 , please?
result: 135 to 137 °C

query: Recorded melting point for CCCCc1nc2ccccc2n1Cc1ccc(-c2ccccc2-c2nnn[nH]2)cc1 , please?
result: 230 to 232 °C

query: Recorded melting point for COCc1cnc(NC(=O)C(Cc2ccc(F)cc2)c2ccc(S(C)(=O)=O)cc2)cn1 (stereo not drawn) , please?
result: 69 to 82.3 °C

query: Recorded melting point for Cc1cc(C)cc(Oc2cccc([N+](=O)[O-])n2)c1 , please?
result: 94 to 95 °C

query: Recorded melting point for COc1ccc(OC)c2c1C[C@@H](O)[C@H](N1CCN(c3ccccc3C)CC1)C2 (relative stereo) , please?
result: 217 to 219 °C

query: Recorded melting point for COc1cc2c(c(OC(C)=O)c1)C1CCC3(C)C(O)CCC3C1CC2 (stereo not drawn) , please?
result: 107 to 110 °C

query: Recorded melting point for Cc1cc(C(C)(C)C)cc(C)c1Cl , please?
result: 39 °C

query: Recorded melting point for O=C(O)CSC12CC3CC(CC(C3)C1)C2 , please?
result: 71 to 73 °C

query: Recorded melting point for COC(=O)CCc1ccc(OCCSCCO)cc1 , please?
result: 47 to 48 °C

query: Recorded melting point for O=C1CC2CCCCC2=NN1c1ccc(Cl)cc1F (stereo not drawn) , please?
result: 110 to 112 °C

query: Recorded melting point for COc1cc(C(=O)c2ncc3ccc(NS(C)(=O)=O)cn23)ccc1[N+](=O)[O-] , please?
result: 249 °C

query: Recorded melting point for Cc1ccc2cc(NS(C)(=O)=O)ccc2n1 , please?
result: 151 to 153 °C

query: Recorded melting point for COc1ccc(S(=O)(=O)N2CCc3cccc(-c4ccc(F)nc4)c32)cc1 , please?
result: 140 to 142 °C

query: Recorded melting point for N#CCCN1c2ccccc2Sc2ccccc21 , please?
result: 158 to 160 °C

query: Recorded melting point for C=CCOC(=O)c1ccc(OC(=O)c2ccc(O)c(C34CC5CC(CC(C5)C3)C4)c2)cc1 , please?
result: 175 to 177 °C

query: Recorded melting point for Sc1nnnn1CCCc1ccccc1 , please?
result: 75 to 76 °C

query: Recorded melting point for CC#CCOc1ccc(S(=O)(=O)C2(C(=O)O)CCCN(Cc3ccc(Cl)cc3)C2)cc1 (stereo not drawn) , please?
result: 115 °C

query: Recorded melting point for COc1cccc2c1C(c1ccccc1Cl)NC(=O)C2 (stereo not drawn) , please?
result: 230 to 233 °C

query: Recorded melting point for CON=C(C1=Nc2ccc(Cl)cc2C(c2ccccc2F)=[N+]([O-])C1)[N+](=O)[O-] , please?
result: 207 to 209 °C

query: Recorded melting point for O=Cc1ccc(-c2ccc(O)cc2)c2ccsc12 , please?
result: 203 to 204 °C

query: Recorded melting point for CCC(CC)c1ccc(Cl)c2nc3n(c12)CC(=O)N3c1cnc(N(C)C)cc1C , please?
result: 222 to 224 °C

query: Recorded melting point for C=CCN(C)C1(C#N)CCC2(CC1)OCCO2 , please?
result: 47 to 50 °C
